Assay: PK of compound of Formula (Ia) after single subcutaneous dose of solution formulations in Wistar Han rats
Assay type: in vivo
Conditions: male, Wistar Han, rat, plasma, sc, 50 mg/kg, 504 h; mean, n = 3 rats; SC 50 mg/kg; solution S, 500 mg/mL
PROPERTY: concentration at 504 h (nM)
Answers are plain numbers, in nM.

Q: Could you share which concentration at 504 h value was measured for CC(C)(C#Cc1ccc(-c2ccc(Cl)c3c(NS(C)(=O)=O)nn(CC(F)(F)F)c23)c([C@H](Cc2cc(F)cc(F)c2)NC(=O)Cn2nc(C(F)(F)F)c3c2C(F)(F)[C@@H]2C[C@H]32)n1)S(C)(=O)=O ?
Result: 287

====

Test: PK of compound of Formula (Ia) after single subcutaneous dose of solution formulations in beagle dogs
Type: in vivo
Conditions: male, beagle, dog, plasma, sc, 6 mg/kg, 336 h; individual dogs; SC 6 mg/kg; solution V, 300 mg/mL
PROPERTY: concentration at 336 h
The answer consists of two parts: a number and, after it, its unit.

Q: Could you share which concentration at 336 h value was measured for CC(C)(C#Cc1ccc(-c2ccc(Cl)c3c(NS(C)(=O)=O)nn(CC(F)(F)F)c23)c([C@H](Cc2cc(F)cc(F)c2)NC(=O)Cn2nc(C(F)(F)F)c3c2C(F)(F)[C@@H]2C[C@H]32)n1)S(C)(=O)=O [compound of Formula (Ia)] ?
Result: 99.2 nM

====

Test: PK of compound of Formula (Ia) after single subcutaneous dose of solution formulations in Wistar Han rats
Assay type: in vivo
Conditions: male, Wistar Han, rat, plasma, sc, 50 mg/kg, Wistar Han rats, SC 50 mg/kg, 400 mg/mL solution Y (water, PEG 300), 48.0 h, Mean n = 4
PROPERTY: concentration at 48 h (nM)
Answers are plain numbers, in nM.

Q: Could you share which concentration at 48 h value was measured for CC(C)(C#Cc1ccc(-c2ccc(Cl)c3c(NS(C)(=O)=O)nn(CC(F)(F)F)c23)c([C@H](Cc2cc(F)cc(F)c2)NC(=O)Cn2nc(C(F)(F)F)c3c2C(F)(F)[C@@H]2C[C@H]32)n1)S(C)(=O)=O [compound of Formula (Ia)] ?
Result: 110

====

Assay: PK of compound of Formula (Ia) after single subcutaneous dose of solution formulations in Wistar Han rats
Type: in vivo
Conditions: male, Wistar Han, rat, plasma, sc, 50 mg/kg, mean ± SD, n = 5 rats; SC 50 mg/kg; solution T, 400 mg/mL; read-out: AUC0-3696 h
PROPERTY: AUC(0-t) (µM·h)
Give bare numbers, in µM·h.

Q: Could you share which AUC(0-t) value was measured for CC(C)(C#Cc1ccc(-c2ccc(Cl)c3c(NS(C)(=O)=O)nn(CC(F)(F)F)c23)c([C@H](Cc2cc(F)cc(F)c2)NC(=O)Cn2nc(C(F)(F)F)c3c2C(F)(F)[C@@H]2C[C@H]32)n1)S(C)(=O)=O ?
Result: 679

====

Assay: PK of compound of Formula (Ia) after single subcutaneous dose of solution formulations in Wistar Han rats
Type: in vivo
Details: male, Wistar Han, rat, plasma, sc, 50 mg/kg, mean ± SD, n = 3 rats; SC 50 mg/kg; solution R, 400 mg/mL; read-out: AUC0-672h
PROPERTY: AUC(0-t)
The answer consists of two parts: a number and, after it, its unit.

Q: Could you share which AUC(0-t) value was measured for CC(C)(C#Cc1ccc(-c2ccc(Cl)c3c(NS(C)(=O)=O)nn(CC(F)(F)F)c23)c([C@H](Cc2cc(F)cc(F)c2)NC(=O)Cn2nc(C(F)(F)F)c3c2C(F)(F)[C@@H]2C[C@H]32)n1)S(C)(=O)=O ?
Result: 170 µM·h
